tested on: U-937; test: Cell cycle arrest in human U937 cells assessed as accumulation at G1 phase at 5 uM after 24 hrs by flow cytometry; assay type: functional, cell-based
Active and inactive are the calls of the source. The calls are words filed in the database; no cut-off is given here.
readout-label: Activity

structure_notation=O=C(/C=C/c1ccc(/C=C/C(=O)c2ccc(F)cc2)o1)NO readout_label=Activity obs_value=Active
structure_notation=CC(C)c1ccc(C(=O)/C=C/c2ccc(/C=C/C(=O)NO)o2)cc1 readout_label=Activity obs_value=Active
structure_notation=O=C(/C=C/c1ccc(/C=C/C(=O)c2ccc(Cl)cc2)o1)NO readout_label=Activity obs_value=Active
structure_notation=O=C(/C=C/c1ccc(/C=C/C(=O)c2ccc3ccccc3c2)o1)NO readout_label=Activity obs_value=Active
structure_notation=O=C(/C=C/c1ccc(/C=C/C(=O)c2cc(Cl)ccc2Cl)o1)NO readout_label=Activity obs_value=Active

Let us move to another entry and its Activity.
Measured Activity, O=C(/C=C/c1ccc(/C=C/C(=O)c2cccc(Cl)c2)o1)NO : Active

====

species: Homo sapiens; experiment: Selectivity index, ratio of IC50 for human recombinant HDAC1 to IC50 for human recombinant HDAC4
Kindly state Ratio IC50 for each of the entries shown.
Numbers only.

Record excerpt, results attached:
structure_notation=O=C(CCCCCCC(=O)Nc1ccccc1C(=O)NO)Nc1ccccc1 readout_label="Ratio IC50" obs_value=1.01
structure_notation=O=C(/C=C/c1ccc(/C=C/C(=O)c2ccccc2)o1)NO readout_label="Ratio IC50" obs_value=0.5
structure_notation=O=C(NO)c1ccc(/C=C/c2ccc(O)cc2)o1 readout_label="Ratio IC50" obs_value=0.76
structure_notation=O=C(NO)c1ccc(/C=C/c2ccc3c(c2)OCO3)o1 readout_label="Ratio IC50" obs_value=0.34
structure_notation=COc1cc(/C=C/c2ccc(C(=O)NO)o2)ccc1OCc1ccccc1 readout_label="Ratio IC50" obs_value=1.3
structure_notation=COc1ccc2cc(C(=O)/C=C/c3ccc(/C=C/C(=O)NO)o3)ccc2c1 readout_label="Ratio IC50" obs_value=2.7
structure_notation=O=C(/C=C/c1ccc(/C=C/C(=O)c2ccc(Cl)cc2)o1)NO readout_label="Ratio IC50" obs_value=2.6
structure_notation=O=C(/C=C/c1ccc(/C=C/C(=O)c2ccc3ccccc3c2)o1)NO readout_label="Ratio IC50" obs_value=0.9

Lab note: each compound below needs its Ratio IC50 filled in.
1. COc1cccc(/C=C/c2ccc(C(=O)NO)o2)c1O
2. CN(C)c1ccc(/C=C/c2ccc(C(=O)NO)o2)cc1

[1.17, 0.97]

Measured Ratio IC50, O=C(/C=C/c1ccc(/C=C/C(=O)c2ccc(F)cc2)o1)NO : 2

====

Target: Protein deacetylase HDAC6 (Homo sapiens) (UniProt Q9UBN7)
Sequence (whole entry): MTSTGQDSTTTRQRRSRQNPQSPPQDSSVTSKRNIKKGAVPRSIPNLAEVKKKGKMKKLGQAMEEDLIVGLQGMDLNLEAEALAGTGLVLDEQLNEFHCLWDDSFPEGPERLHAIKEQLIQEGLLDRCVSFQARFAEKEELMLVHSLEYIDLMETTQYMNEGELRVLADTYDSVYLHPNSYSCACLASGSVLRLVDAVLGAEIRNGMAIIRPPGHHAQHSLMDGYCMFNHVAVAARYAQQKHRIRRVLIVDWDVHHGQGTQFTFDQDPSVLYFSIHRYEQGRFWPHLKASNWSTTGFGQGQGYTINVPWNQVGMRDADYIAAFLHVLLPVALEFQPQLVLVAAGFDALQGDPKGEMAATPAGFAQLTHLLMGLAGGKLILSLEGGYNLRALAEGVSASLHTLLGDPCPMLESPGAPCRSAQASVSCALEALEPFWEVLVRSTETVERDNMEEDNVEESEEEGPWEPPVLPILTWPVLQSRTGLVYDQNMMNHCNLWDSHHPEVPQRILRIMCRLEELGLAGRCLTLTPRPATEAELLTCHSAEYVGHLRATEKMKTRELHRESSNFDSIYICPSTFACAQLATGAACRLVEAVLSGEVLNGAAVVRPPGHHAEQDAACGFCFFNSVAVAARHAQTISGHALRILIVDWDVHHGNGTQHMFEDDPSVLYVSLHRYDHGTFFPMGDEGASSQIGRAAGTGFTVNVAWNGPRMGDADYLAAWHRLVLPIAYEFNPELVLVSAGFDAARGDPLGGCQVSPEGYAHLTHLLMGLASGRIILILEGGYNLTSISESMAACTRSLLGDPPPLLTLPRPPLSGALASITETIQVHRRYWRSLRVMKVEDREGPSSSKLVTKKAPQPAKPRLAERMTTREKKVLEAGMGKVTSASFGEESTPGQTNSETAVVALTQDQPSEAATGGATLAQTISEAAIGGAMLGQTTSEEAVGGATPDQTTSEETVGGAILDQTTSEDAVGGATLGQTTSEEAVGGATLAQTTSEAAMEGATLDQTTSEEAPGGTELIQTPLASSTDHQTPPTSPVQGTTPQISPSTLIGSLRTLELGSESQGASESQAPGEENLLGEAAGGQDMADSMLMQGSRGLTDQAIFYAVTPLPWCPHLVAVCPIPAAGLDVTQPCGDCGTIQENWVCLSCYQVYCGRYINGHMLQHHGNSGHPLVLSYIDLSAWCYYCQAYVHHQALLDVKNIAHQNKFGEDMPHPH
Test: Inhibition of HDAC6 in human U937 cells assessed as induction of alpha-tubulin acetylation after 24 hrs by Western blot analysis
Assay type: cell-based
Settings: U-937
Active and inactive are the calls of the source. No cut-off for these calls is given here.
readout-label: Activity

structure_notation=O=C(/C=C/c1ccc(/C=C/C(=O)c2ccc(F)cc2)o1)NO readout_label=Activity obs_value=Active
structure_notation=O=C(/C=C/c1ccc(/C=C/C(=O)c2ccc3ccccc3c2)o1)NO readout_label=Activity obs_value=Active
structure_notation=O=C(/C=C/c1ccc(/C=C/C(=O)c2ccc(Cl)cc2Cl)o1)NO readout_label=Activity obs_value=Active
